Source: paper PMC5540273

Test system: DAPK2
Settings: concentration: 1 μM, replicates: in singlicate; n = 1;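 also: KINOMEscan kinase panel screen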
endpoint: %Inh (%)
Please give a number only; it is taken to be in %.

Asked: Which %Inh reading was recorded for the compound CS(=O)(=O)Cc1ccc(Nc2nccc(-c3c(-c4cccc(NC(=O)C5CCCCC5)c4)nn4ncccc34)n2)cc1 ?
Given back: 9

Asked: For the compound Cc1ccc(NC(=O)Nc2ccccc2)cc1-c1ccc(C(=O)Nc2ccncc2)cc1 , what %Inh is on record?
Given back: 3

Asked: For Fc1ccc(-c2nc3n(c2-c2ccncc2)CCS3)cc1 , what is its reported %Inh?
Given back: 0

Asked: What measured %Inh goes with Cl.Cl.Cl.N#Cc1ccc(CCNc2nccc(-c3cccc(CN4CCNCC4)c3)n2)cc1 ?
Given back: 19

Asked: Need %Inh, item O=C1NC(=O)C(c2ccc(Cl)cc2)=C1Nc1ccc(O)cc1
Given back: 0

Asked: Fill in: %Inh of CN1c2ccc(-c3ccc(C(N)=O)cc3)cc2-c2[nH]ncc2S1(=O)=O is ___
Given back: 18

Asked: Need %Inh of Cc1ccc(-c2nc(Nc3ccncc3)c3ccccc3n2)s1 , thanks.
Given back: 0

Asked: // %Inh lookup, key: COC(=O)C(Cc1ccccc1)NC(=O)NC1CCN(c2ccnc(Nc3ccc(F)cc3)n2)C1 (stereo not shown)
Given back: 12

Asked: Tell me the measured %Inh of CC(C)c1cc(-c2ccc3c(N)n[nH]c3c2)nc(N)n1 , please.
Given back: 6

Asked: Form field: reported %Inh of CS(=O)(=O)CCNCc1nc(-c2ccc3ncnc(Nc4ccc(OCc5ccccc5)c(Cl)c4)c3c2)cs1.Cl
Given back: 0

Asked: Item under review: CNC(=O)c1ccc(C)c(-n2c(C)cc(OCc3ccc(F)cc3F)c(Br)c2=O)c1 . Reported %Inh?
Given back: 0

Asked: What value of %Inh has been recorded for this entry: Cn1cncc1-c1cc2c(Nc3ccc(OCc4ccccc4)cc3)ncnc2cn1
Given back: 0

Asked: Entry under review: FC(F)(F)c1ccccc1-c1cc(-c2c[nH]nc2-c2ccccn2)ccn1 . Reported %Inh?
Given back: 9

Asked: Need %Inh of Cc1c(Cn2c(C)c(C)n3c(=O)cc(N4CCOCC4)nc23)cccc1C(F)(F)F , thanks.
Given back: 0

Asked: // returns reported %Inh for input O=C1NC(=O)C(c2ccc(Cl)cc2)=C1Nc1cccc(Cl)c1
Given back: 0

Asked: Fill blank: measured %Inh of the compound COc1ccc(-c2coc3ccc(-c4nnc(C)o4)cc23)cc1 is ____.
Given back: 1

Asked: May I ask what %Inh has been recorded for COc1ccc(CSc2nnc(-c3ccc4c(c3)CCO4)o2)cc1 ?
Given back: 18

Asked: Entry O=c1cc(N2CCOCC2)nc2n(Cc3ccccc3F)ccn12 has what %Inh?
Given back: 0

Asked: %Inh lookup needed for CSc1ccc(-c2nc3n(c2-c2ccncc2)CCC3)cc1 , thanks.
Given back: 0

Asked: // lookup %Inh for CC(=O)c1c(C)c2cnc(Nc3ccc(N4CCNCC4)cn3)nc2n(C2CCCC2)c1=O
Given back: 13

Asked: Param item = CCn1c(-c2ccccc2)nc2cnccc21 ; retrieve measured %Inh.
Given back: 0

Asked: GET /values?readout=%Inh&item= COc1ccc(CSc2nnc(-c3ccc4ncsc4c3)o2)cc1C(F)(F)F
Given back: 4

Asked: What value of %Inh has been recorded for this entry: COC(=O)C(NC(=O)NC1CCN(c2ccnc(Nc3ccc(F)cc3)n2)C1)c1ccccc1 (stereo not shown)
Given back: 0

Asked: Which value of %Inh has been reported for COc1cccc(CNC(=O)NC2CCN(c3ccnc(Nc4ccc(F)cc4)n3)C2)c1 (stereo not shown) in the records?
Given back: 22

Asked: Could you tell me which %Inh is on file for Cn1cncc1C(=O)NC1CCN(c2ccnc(Nc3ccc(F)cc3)n2)C1 (stereo not shown) ?
Given back: 0

----------
Test system: ZAK
Details: concentration: 1 μM, replicates: in singlicate; n = 1
endpoint: %Inh (%)
Give the number; % is assumed, so skip it.

Asked: Fill blank: measured %Inh of the compound CCCCc1nn2ncccc2c1-c1ccnc(NC2CC2)n1 is ____.
Given back: 24

Asked: Return reported %Inh; argument: Cc1ccc(NC(=O)Nc2ccccc2)cc1-c1ccc(C(=O)Nc2ccncc2)cc1
Given back: 53

Asked: Tell me the measured %Inh of COC(=O)C(NC(=O)NC1CCN(c2ccnc(Nc3ccc(F)cc3)n2)C1)c1ccccc1 (centres unmarked) , please.
Given back: 0

Asked: I would be grateful if you could share the reported %Inh for Cc1c(Cn2c3ccccc3n3c(=O)cc(N4CCOCC4)nc23)cccc1C(F)(F)F .
Given back: 1

Asked: %Inh lookup needed for Nc1nccc(-c2c(-c3ccc(F)cc3)ncn2C2CCN(Cc3ccccc3)CC2)n1 , thanks.
Given back: 0

----------
System: PIP5K2C
Construct: gene PIP4K2C
Conditions: concentration: 1 μM, replicates: in singlicate; n = 1
// assign class 1 if %Inh falls strictly below 30%, else class 0 (ties count as class 0)

Asked: Take the compound CS(=O)(=O)Cc1ccc(Nc2nccc(-c3c(-c4cccc(NC(=O)C5CCCCC5)c4)nn4ncccc34)n2)cc1 [GSK350559] and say whether its %Inh is less than 30%.
Given back: class 0

Asked: # strict comparison: is reported %Inh < 30%? input = COc1cccc(CNC(=O)NC2CCN(c3ccnc(Nc4ccc(F)cc4)n3)C2)c1 (stereo not drawn) [GSK1379723]
Given back: class 1

Asked: In the record for Cc1ccc(NC(=O)Nc2ccc(Cl)c(C(F)(F)F)c2)cc1-c1ccc(C(=O)Nc2ccncc2)cc1 [GSK1398470] , is %Inh less than 30%?
Given back: class 1

Asked: Problem: For the compound COc1ccc(Nc2nccc(-c3ccc(NC(=O)c4cc5cc(F)ccc5[nH]4)cc3)n2)cc1 [GSK1229496] , is %Inh under 30%?
Given back: class 0

Asked: Please check: %Inh for Cn1cnc2c(N)ncnc21 [SKF-97623] , strictly under 30% or not?
Given back: class 0

Asked: Hello, I'm reviewing records and need to know if %Inh of Fc1ccc(-c2nc3n(c2-c2ccncc2)CCS3)cc1 [GI98581] is below 30%. Could you check?
Given back: class 1

Asked: Field: below-cutoff. Rule: recorded %Inh strictly less than 30%. Subject: c1ccc(-c2ccnc3[nH]ccc23)cc1 [SB-693578]
Given back: class 1

Asked: Strictly below 30%: is that where %Inh of CNc1nc(-c2ccc3c(N)n[nH]c3c2)cc(N2C[C@@H](C(=O)NC3CCCCC3)OC[C@H]2C)n1 [GSK2375584] sits?
Given back: class 1

Asked: Is %Inh strictly under 30% for the entry Cc1c(Cn2c(C)c(C)n3c(=O)cc(N4CCOCC4)nc23)cccc1C(F)(F)F [GSK2328680] ?
Given back: class 1

----------
Test system: EPHA1
Conditions: concentration: 1 μM, replicates: in singlicate; n = 1
Please go through the items and note down their %Inh.
Express it in %; write the number only.

Asked: Query: %Inh; subject: CC(=O)c1cccc(NC(=O)NC2CCN(c3ccnc(Nc4ccc(F)cc4)n3)C2)c1 (centres unmarked)
Given back: 7

Asked: So what does the record say about %Inh for COc1cccc(C2=C(Nc3cc(Cl)c(O)c(Cl)c3)C(=O)NC2=O)c1 ?
Given back: 8

Asked: Consider the molecule shown here: COc1ccc(CSc2nnc(-c3ccc4c(c3)CCO4)o2)cc1 What is its recorded %Inh?
Given back: 0

Asked: Given CS(=O)(=O)Cc1ccc(Nc2nccc(-c3c(-c4cccc(NC(=O)C5CCCCC5)c4)nn4ncccc34)n2)cc1 , state its recorded %Inh.
Given back: 6

Asked: %Inh for Fc1ccc(-c2nc3n(c2-c2ccncc2)CCS3)cc1 ?
Given back: 8

----------
Test system: LOK
Construct: gene STK10
Conditions: concentration: 1 μM, replicates: in singlicate; n = 1
endpoint: %Inh (%)
Field: numeric (%). Do not append units.

Asked: Please provide the recorded %Inh for CS(=O)(=O)CCNCc1nc(-c2ccc3ncnc(Nc4ccc(OCc5ccccc5)c(Cl)c4)c3c2)cs1.Cl [GW582764] , tested on LOK.
Given back: 0

Asked: Notebook entry, LOK assay: %Inh of Cc1c(Cn2c3ccccc3n3c(=O)cc(N4CCOCC4)nc23)cccc1C(F)(F)F [GSK2306394] = ?
Given back: 0

Asked: Quick check: %Inh on LOK, item O=C(Nc1n[nH]c2nc(-c3cccs3)c(Br)cc12)C1CC1 [SB-735297] ?
Given back: 18

Asked: Give recorded %Inh with LOK for the following compound: Cc1ccccc1-c1cc(-c2c[nH]nc2-c2ccccn2)ccn1 [GW680061]
Given back: 0

Asked: Query %Inh on LOK for COc1ccc(Nc2nccc(N3CCC(NC(=O)C(C)c4ccc(Cl)cc4)CC3)n2)cc1 (stereo not drawn) [GSK1379812]
Given back: 0

Asked: Lab request: please report %Inh under test system LOK for COc1cccc(NC(=O)Nc2ccc(C)c(-c3ccc(C(=O)Nc4ccncc4)cc3)c2)c1 [GSK1398474]
Given back: 0

Asked: Observed %Inh on LOK for CN1c2ccc(-c3ccc(C(N)=O)cc3)cc2-c2[nH]ncc2S1(=O)=O , please.
Given back: 5

Asked: Notebook: pull reported %Inh for LOK, entry COc1ccc(CSc2nnc(-c3ccc4c(c3)CCO4)o2)cc1
Given back: 0

Asked: Query for LOK: what %Inh does the record show for Cc1ccc(NC(=O)Nc2ccccc2)cc1-c1ccc(C(=O)Nc2ccncc2)cc1 [GSK1398471] ?
Given back: 25

Asked: # value lookup — system LOK, readout %Inh, item Cc1ccccc1Cn1ccn2c(=O)cc(N3CCOCC3)nc12 [GSK2269905]
Given back: 0

Asked: Quick check: %Inh on LOK, item Cn1cncc1C(=O)NC1CCN(c2ccnc(Nc3ccc(F)cc3)n2)C1 (stereo not drawn) [GSK1379717] ?
Given back: 0

Asked: Notebook: pull reported %Inh for LOK, entry O=c1cc(N2CCOCC2)nc2n(Cc3ccccc3F)ccn12 [GSK2297428]
Given back: 0

Asked: API: value(readout= %Inh, system= LOK, query= Nc1nccc(-c2c(-c3ccc(F)cc3)ncn2C2CCN(Cc3ccccc3)CC2)n1 [SB-219980] )
Given back: 18

Asked: # query: %Inh | item CC[C@@H]1CO[C@H](C(=O)Nc2ccccc2)CN1c1cc(-c2ccc3c(N)n[nH]c3c2)nc(NC)n1 [GSK2376236] | system: LOK
Given back: 0

Asked: Give LOK %Inh for COC(=O)c1cccc(NC(=O)NC2CCN(c3ccnc(Nc4ccc(OC)cc4)n3)C2)c1 (stereo not drawn) [GSK1379746]
Given back: 0

Asked: Query %Inh on LOK for Cc1c(Cn2c(C)c(C)n3c(=O)cc(N4CCOCC4)nc23)cccc1C(F)(F)F [GSK2328680]
Given back: 0

Asked: // map CNc1cc(-c2ccc3c(N)n[nH]c3c2)nc(N)n1 [GSK2224810] to recorded %Inh (system: LOK)
Given back: 0

Asked: Recall the recorded %Inh for COc1ccc(Nc2nccc(N3CCC(NC(=O)C(C)c4ccc(Cl)cc4)C3)n2)cc1 (stereo not drawn) [GSK1379735] with LOK and state it.
Given back: 0

Asked: Enter reported %Inh observed with LOK for O=C(Nc1n[nH]c2cc(-c3ccsc3)ccc12)C1CC1 [SB-732932]
Given back: 3

Asked: Give LOK %Inh for Cc1nccc(-c2c(-c3ccc(F)cc3)ncn2CCCN2CCOCC2)n1.Cl [SB-282975]
Given back: 9

Asked: Requested read-out %Inh, target or system LOK, entry COc1cc2ncnc(Nc3cccc(Br)c3)c2cc1OC.Cl [GI230329]
Given back: 36

Asked: Recall the recorded %Inh for COc1cccc(C2=C(Nc3cc(Cl)c(O)c(Cl)c3)C(=O)NC2=O)c1 [SB-390767] with LOK and state it.
Given back: 0

Asked: Missing value: %Inh, LOK, entry Cl.Cl.Cl.N#Cc1ccc(CCNc2nccc(-c3cccc(CN4CCNCC4)c3)n2)cc1 [GSK2137462] . Fill in?
Given back: 0

Asked: Look up %Inh with LOK for this compound: Cn1cnc2c(N)ncnc21 [SKF-97623]
Given back: 4

Asked: Report %Inh for CNCc1ccc2nc(NC(=O)c3ccc(C(C)(C)C)cc3)cn2c1 tested on LOK.
Given back: 0

Asked: What is its %Inh for LOK? Entry: Cc1ccc(NC(=O)c2ccc(Cl)cc2)cc1-c1ccc(C(=O)Nc2ccncc2)cc1 [GSK1398467]
Given back: 0

Asked: Give LOK %Inh for COc1ccc(Nc2nccc(NCCNC(=O)Nc3cc(C)ccc3C)n2)cc1 [GSK1379899]
Given back: 0

Asked: GET /values?readout=%Inh&system=LOK&item= COc1ccc(CSc2nnc(-c3ccc4nccn4c3)o2)cc1C(F)(F)F
Given back: 3

Asked: Param readout = %Inh; param system = LOK; param query = CS(=O)(=O)Cc1ccc(Nc2nccc(-c3c(-c4cccc(NC(=O)C5CCCCC5)c4)nn4ncccc34)n2)cc1 [GSK350559] ; response: value
Given back: 81

Asked: Give the reported %Inh for CNC(=O)c1ccc(C)c(-n2c(C)cc(OCc3ccc(F)cc3F)c(Br)c2=O)c1 (system: LOK).
Given back: 0

Asked: Given the entry Cc1cnc(N)c(/C=C/c2cncc(C(=O)NCCc3ccc(Cl)cc3Cl)c2)c1.Cl [GSK190937] , what %Inh was observed with LOK?
Given back: 0

Asked: %Inh of CCn1c(-c2c(N)noc2C)nc2cnccc21 [SB-737856] on LOK?
Given back: 0

Asked: Requested read-out %Inh, target or system LOK, entry Cc1cccc2c(-c3ccncn3)c(-c3ccc(F)cc3)nn12 [GW515532]
Given back: 0

Asked: Report %Inh for COc1ccc(Nc2nccc(N3CCC(NC(=O)c4cc5ccccc5s4)C3)n2)cc1 (stereo not drawn) [GSK1379738] tested on LOK.
Given back: 0

Asked: Please tell me: %Inh of COc1ccc2cc(-c3nc(-c4ccccc4C(C)C)[nH]c3-c3ccncc3)ccc2c1 [SB-660566] , system LOK?
Given back: 61

Asked: Lab note: need %Inh with LOK for entry Fc1ccc(-c2nc3n(c2-c2ccncc2)CCS3)cc1 [GI98581] , please look it up.
Given back: 0
